Ref: patent US9617267B2

Biological target: CYP2C9 (Homo sapiens (Human))
Sequence (P11712 whole entry): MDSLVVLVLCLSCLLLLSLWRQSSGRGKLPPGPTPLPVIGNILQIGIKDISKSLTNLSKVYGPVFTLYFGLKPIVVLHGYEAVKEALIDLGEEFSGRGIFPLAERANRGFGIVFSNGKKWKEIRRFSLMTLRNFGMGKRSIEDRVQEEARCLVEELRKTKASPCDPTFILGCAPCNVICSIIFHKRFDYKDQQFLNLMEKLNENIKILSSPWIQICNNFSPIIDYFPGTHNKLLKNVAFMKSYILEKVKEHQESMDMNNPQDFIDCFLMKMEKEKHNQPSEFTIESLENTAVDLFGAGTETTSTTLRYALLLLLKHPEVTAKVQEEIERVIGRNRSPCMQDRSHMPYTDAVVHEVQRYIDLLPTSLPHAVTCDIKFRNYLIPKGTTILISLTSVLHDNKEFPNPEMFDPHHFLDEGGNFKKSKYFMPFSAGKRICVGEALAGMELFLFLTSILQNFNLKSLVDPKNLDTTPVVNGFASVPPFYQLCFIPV
Test: CYP enzyme inhibition, fluorescent substrate (MFC)
Below: a set of entries, each annotated with reported IC50.
recorded endpoint: IC50

compound | system name | value reported
CCCS(=O)(=O)Nc1ccc(F)c(C(=O)c2c[nH]c3ncc(C#N)c(Cl)c23)c1F [P-2004] | CYP2C9 (Homo sapiens (Human)) | < 5 µM
CCc1ccc(S(=O)(=O)Nc2ccc(F)c(C(=O)c3c[nH]c4ncnc(OC)c34)c2F)cc1 [P-1008] | CYP2C9 (Homo sapiens (Human)) | 5 to 10 µM
CCCS(=O)(=O)Nc1ccc(F)c(C(=O)c2c[nH]c3ncc(Cl)c(C#N)c23)c1F [P-2007] | CYP2C9 (Homo sapiens (Human)) | < 5 µM
O=C(c1c(F)ccc(NS(=O)(=O)c2ccc(C(F)(F)F)cc2)c1F)c1c[nH]c2ncnc(OCC3CC3)c12 [P-1053] | CYP2C9 (Homo sapiens (Human)) | 5 to 10 µM
CCCS(=O)(=O)Nc1ccc(F)c(C(=O)c2c[nH]c3ncc(OC)c(Cl)c23)c1F [P-2002] | CYP2C9 (Homo sapiens (Human)) | < 5 µM
CCCS(=O)(=O)Nc1ccc(F)c(C(=O)c2c[nH]c3ncc(Cl)c(OC)c23)c1F [P-2006] | CYP2C9 (Homo sapiens (Human)) | < 5 µM
CC(C)Nc1ncnc2[nH]cc(C(=O)c3c(F)ccc(NS(=O)(=O)c4cc(F)ccc4F)c3F)c12 [P-1111] | CYP2C9 (Homo sapiens (Human)) | 5 to 10 µM
Cc1ncnc2[nH]cc(C(=O)c3c(F)ccc(NS(=O)(=O)CC(C)C)c3F)c12 [P-1003] | CYP2C9 (Homo sapiens (Human)) | 5 to 10 µM
